assay system: Mucolipin-3 (Homo sapiens) (UniProt Q8TDD5)
Sequence (Q8TDD5 whole entry, looked up): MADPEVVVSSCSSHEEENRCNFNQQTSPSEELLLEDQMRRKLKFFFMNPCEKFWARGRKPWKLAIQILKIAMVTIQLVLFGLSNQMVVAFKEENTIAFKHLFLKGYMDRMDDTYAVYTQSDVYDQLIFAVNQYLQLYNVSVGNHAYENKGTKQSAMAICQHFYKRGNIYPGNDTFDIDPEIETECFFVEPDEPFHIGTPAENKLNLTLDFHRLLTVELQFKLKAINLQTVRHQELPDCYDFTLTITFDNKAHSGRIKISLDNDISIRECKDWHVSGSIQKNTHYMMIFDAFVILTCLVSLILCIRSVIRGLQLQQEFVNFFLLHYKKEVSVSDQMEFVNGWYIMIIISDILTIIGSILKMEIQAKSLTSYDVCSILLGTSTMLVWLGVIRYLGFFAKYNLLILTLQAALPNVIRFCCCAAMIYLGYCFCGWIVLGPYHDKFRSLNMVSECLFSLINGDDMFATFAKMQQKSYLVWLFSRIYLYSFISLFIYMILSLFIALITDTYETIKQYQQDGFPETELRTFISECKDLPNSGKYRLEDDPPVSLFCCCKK
assay overview: human TRPML3 channel agonists, confirmation, cell-based, HEK293 TRPML3-YFP, Fluo-8 calcium, triplicate (AID 1526)
condition: Fluo-8 calcium fluorescence, at 3 µM, hits give high values, 100% set by carbachol, 0% by DMSO
Some of the results follow.
Label condition met when activation is at or above 50%; anything below gets condition not met.

For orientation, consider the following solved cases.
# compound, assay system, class assignment
rows = [
    ("c1ccc2c(C[n+]3csc4ccccc43)cccc2c1", "Mucolipin-3 (Homo sapiens) (UniProt Q8TDD5)", "condition met"),
    ("O=C(CC(O)(C(F)(F)F)C(F)(F)F)Nc1ccc(Cl)c(Cl)c1", "Mucolipin-3 (Homo sapiens) (UniProt Q8TDD5)", "condition not met"),
]

Ask: Would you say `CCOc1ccc(S(=O)(=O)N2CCCCCC2)c2ccccc12` shows activation at minimum 50%?
Result: condition met

Ask: Would you say `COc1ccccc1N(CC(=O)N1CCCCC1)S(=O)(=O)c1ccccc1` shows activation at minimum 50%?
Result: condition met
